The origin of these recorded values is ChEMBL document CHEMBL4342426.

- assay-overview: in vitro
- measurement-parameters: human, MRC5 SV2 cells
- Description: Cytotoxicity against human MRC5 SV2 cells assessed as reduction in cell viability incubated for 3 days by fluorimetry

| compound | IC90 at 72 h |
| --- | --- |
| O=C(c1cc(C2CC2)on1)N1CCCC(c2cc3ncccc3[nH]2)C1 (stereo not given) | 32 µM |
| O=C(CCc1nc2ncc(Cl)cc2[nH]1)Nc1ccccc1 | 64 µM |
| COc1ccc2cc(C(=O)N3CCCC(c4cc5ncccc5[nH]4)C3)[nH]c2c1 (stereo not given) | 32 µM |
| O=C(c1ccc(F)cc1)N1CCCC(c2cc3nc(N4CCCC4)ccc3[nH]2)C1 (stereo not given) | 64 µM |
| CC(C)(C)OC(=O)N1CCCC(c2cn3nc(Cl)ccc3n2)C1 (stereo not given) | 64 µM |
| O=C(Nc1ccc(-c2cc3ncccc3[nH]2)cc1)c1ccccc1 | 64 µM |
| O=C(NCCc1nc2ncc(Cl)cc2[nH]1)c1ccccc1 | 64 µM |
| O=C(CCc1nc2ncc(Cl)cc2[nH]1)Nc1cccc(F)c1 | 64 µM |
| CC(C)(C)c1cc(C(=O)N2CCCC(c3cc4ncccc4[nH]3)C2)on1 (stereo not given) | 64 µM |
| O=C(c1cc(C(F)(F)F)no1)N1CCC(c2cc3ncccc3[nH]2)C1 (stereo not given) | 64 µM |

###

- assay-overview: in vitro
- measurement-parameters: human, MRC5 SV2 cells
- Description: Selectivity index, ratio of IC50 for human MRC5 SV2 cells to IC50 for Trypanosoma cruzi Tulahuen CL2 amastigotes infected in human MRC5 SV2 cells
measured-endpoint: selectivity ratio

| compound | measured-endpoint | quantitative-readout |
| --- | --- | --- |
| O=C(c1ccc(F)cc1)N1CCCC(c2cc3nc(N4CCCC4)ccc3[nH]2)C1 (stereo not drawn) | selectivity ratio | 5.86 |
| O=C(c1cc(C(F)(F)F)no1)N1CCCC(c2cc3nc(NCc4ccccc4)ccc3[nH]2)C1 (stereo not drawn) | selectivity ratio | 3.23 |
| O=C(Cc1ccccc1)N1CCN(c2nc3ccccc3s2)CC1 | selectivity ratio | 1.59 |
| O=C(c1ccc(F)cc1)N1CCC(c2cc3ncccc3[nH]2)C1 (stereo not drawn) | selectivity ratio | 7.15 |
| CC(C)(O)c1cc(C(=O)N2CCCC(c3cc4ncccc4[nH]3)C2)on1 (stereo not drawn) | selectivity ratio | 1.9 |
| CC(C)(C)OC(=O)N1CCCC(c2cn3nc(Cl)ccc3n2)C1 (stereo not drawn) | selectivity ratio | 2.15 |
| O=C(c1ccccc1)N1CCC(c2cc3ncccc3[nH]2)CC1 | selectivity ratio | 2.86 |
| O=C(c1cc(C(F)(F)F)no1)N1CCC(c2cc3ncccc3[nH]2)C1 (stereo not drawn) | selectivity ratio | 7.25 |

###

- assay-overview: in vitro
- measurement-parameters: mouse, liver microsomes
- Description: Metabolic stability in mouse liver microsomes assessed as intrinsic clearance at 0.5 uM incubated for 30 mins by LC-MS/MS analysis
Measured CLint scaled at 0.5 h, 0.5 µM, listed per entry for reference.

| compound | CLint scaled at 0.5 h, 0.5 µM |
| --- | --- |
| O=C(Nc1cccc(-c2cc3ncccc3[nH]2)c1)c1ccccc1 | ≥ 1670 mL/min/kg |
| O=C(c1ccccc1)N1C=C(c2cc3ncccc3[nH]2)CCC1 | ≥ 3320 mL/min/kg |
| O=C(c1cc(C2CC2)on1)N1CCCC(c2cc3ncccc3[nH]2)C1 (stereo unspecified) | 1830 mL/min/kg |
| N#Cc1cnc2cc(C3CCCN(C(=O)c4cc(C(F)(F)F)no4)C3)[nH]c2c1 (stereo unspecified) | 310 to 555 mL/min/kg |
| CC(C)(O)c1cc(C(=O)N2CCCC(c3cc4ncccc4[nH]3)C2)on1 (stereo unspecified) | < 88 mL/min/kg |
| CC(C)(C)OC(=O)N1CCCC(c2cn3nc(Cl)ccc3n2)C1 (stereo unspecified) | > 11300 mL/min/kg |
